Would you mind telling me the reported IC50 of each entry?
- assayed.system: FGFR2 (Homo sapiens (Human), UniProt P21802)
- Sequence (P21802 22-821): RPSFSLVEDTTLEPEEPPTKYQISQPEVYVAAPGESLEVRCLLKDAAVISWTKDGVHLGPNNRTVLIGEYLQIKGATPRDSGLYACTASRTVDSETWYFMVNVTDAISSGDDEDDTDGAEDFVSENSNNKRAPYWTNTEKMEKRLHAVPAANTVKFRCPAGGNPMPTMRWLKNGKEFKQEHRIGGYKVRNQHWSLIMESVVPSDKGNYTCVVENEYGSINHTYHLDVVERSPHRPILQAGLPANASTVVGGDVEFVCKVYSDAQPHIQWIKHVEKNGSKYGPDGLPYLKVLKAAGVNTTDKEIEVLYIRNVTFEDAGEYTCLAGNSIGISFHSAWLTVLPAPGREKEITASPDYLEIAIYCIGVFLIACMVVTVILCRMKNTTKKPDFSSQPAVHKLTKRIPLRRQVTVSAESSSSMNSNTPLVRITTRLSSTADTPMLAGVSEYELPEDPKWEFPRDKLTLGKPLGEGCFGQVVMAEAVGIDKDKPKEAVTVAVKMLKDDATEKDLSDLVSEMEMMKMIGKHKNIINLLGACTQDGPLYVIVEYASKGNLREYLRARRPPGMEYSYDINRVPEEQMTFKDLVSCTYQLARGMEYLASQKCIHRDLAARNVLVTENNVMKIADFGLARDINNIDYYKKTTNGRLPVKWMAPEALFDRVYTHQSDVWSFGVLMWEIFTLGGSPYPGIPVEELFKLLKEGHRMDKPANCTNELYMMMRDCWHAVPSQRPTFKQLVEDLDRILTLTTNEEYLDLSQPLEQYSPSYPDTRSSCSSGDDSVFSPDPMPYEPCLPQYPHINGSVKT
- procedure.text: FGFR2 Biochemical Caliper Assay

Exercise: Given the compound "C=C(C)C(=O)Nc1ccc(-c2c(-c3cc(O)c(Oc4ncccn4)c(CC)c3)c3c(N)ncnc3n2C)cc1" , what is its reported IC50?
Solution: 1000 to 100000 nM

Exercise: Item under review: C=CC(=O)N1CCC(c2c(-c3ccc(N(C)C4CCOCC4)cc3)c3c(N)ncnc3n2C)C1 (stereo not shown) . Reported IC50?
Solution: 250 to 1000 nM

Exercise: Value lookup for IC50; key = "C=C(C)C(=O)Nc1ccc(-c2c(-c3ccc(Oc4nccc(C)n4)cc3C(F)F)c3c(N)ncnc3n2C)cc1"
Solution: 1000 to 100000 nM

Exercise: Please give the measured IC50 for this compound: "C=C(C)C(=O)Nc1ccc(-c2c(-c3ccc(Oc4nccc(C)n4)cc3F)c3c(N)ncnc3n2C)c(F)c1"
Solution: < 100 nM

Exercise: Give its IC50 value. Item: "C=C(C)C(=O)Nc1ccc(-c2c(-c3ccc(C(=O)N(C)CC4(F)COC4)cc3)c3c(N)ncnc3n2C)c(F)c1"
Solution: 100 to 250 nM

Exercise: # IC50 lookup, item "C=C(C)C(=O)Nc1ccc(-c2c(-c3ccc(-c4nnc(C(F)(F)F)o4)cc3)c3c(N)ncnc3n2C)cc1"
Solution: 1000 to 100000 nM

Exercise: Looking for the measured IC50 of "C=C(C)C(=O)Nc1ccc(-c2c(C3=CC[C@H](C(=O)N4CC5CCC(C5)C4)CC3)c3c(N)ncnc3n2C)cc1" , can you help?
Solution: 1000 to 100000 nM

Origin of values: patent US11780845B2
